This collection of values is drawn from the supplement of paper PMC9694430.

Tested on: LOC_OS04G41100-cb001
Sequence (whole entry): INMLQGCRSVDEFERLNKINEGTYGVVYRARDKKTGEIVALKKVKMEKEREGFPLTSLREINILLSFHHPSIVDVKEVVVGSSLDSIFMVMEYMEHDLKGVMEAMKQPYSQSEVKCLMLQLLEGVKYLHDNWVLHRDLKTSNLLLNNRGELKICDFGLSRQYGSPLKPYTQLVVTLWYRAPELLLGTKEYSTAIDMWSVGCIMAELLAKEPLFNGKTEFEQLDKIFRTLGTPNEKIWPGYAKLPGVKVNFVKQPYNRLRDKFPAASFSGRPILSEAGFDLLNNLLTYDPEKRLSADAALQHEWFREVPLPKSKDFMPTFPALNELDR
TEST PROTOCOL: thermal shift delta Tm vs DMSO control; higher = stronger stabilization (binding);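 further: purified Escherichia coli-expressed rice kinase domain construct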
EXPERIMENTAL CONDITIONS: 12.5 µM; protein concentration 2 µM
RESULT TYPE: thermal shift delta Tm (°C)

COMPOUND	RESULT TYPE	UOM	READOUT VALUE
O=C1Nc2ccc(I)cc2/C1=C/c1cc(Br)c(O)c(Br)c1	thermal shift delta Tm	°C	0.75
Cc1[nH]c(/C=C2\C(=O)Nc3ccc(S(=O)(=O)N(C)c4cccc(Cl)c4)cc32)c(C)c1C(=O)N1CCN(C)CC1	thermal shift delta Tm	°C	0.68
CN1CCN(S(=O)(=O)c2ccc(-c3cnc(N)c(C(=O)Nc4cccnc4)n3)cc2)CC1	thermal shift delta Tm	°C	0.85
O=C(NOCC1CC1)c1ccc(F)c(F)c1Nc1ccc(I)cc1Cl	thermal shift delta Tm	°C	0.9
Cc1cccc(Nc2nc(NC3CCCCC3N)ncc2C(N)=O)c1 (stereo not given)	thermal shift delta Tm	°C	0.73

---

System: LOC_OS01G13800-cb001
TEST PROTOCOL: thermal shift delta Tm vs DMSO control; higher = stronger stabilization (binding)
EXPERIMENTAL CONDITIONS: 12.5 µM; protein concentration 2 µM

COMPOUND	thermal shift delta Tm (°C)
CN1CCC(COc2cnc(-c3cccc(Cn4nc(-c5cccc(C#N)c5)ccc4=O)c3)nc2)CC1	-0.5
N#Cc1cccc(-c2c[nH]c3ncnc(N4CCOCC4)c23)c1	0.32
COc1cc2nccc(Oc3ccc(NC(=O)NC4CC4)c(Cl)c3)c2cc1C(N)=O [Lenvatinib (E7080)]	0.29
Cc1[nH]c(/C=C2\C(=O)Nc3ccc(S(=O)(=O)N(C)c4cccc(Cl)c4)cc32)c(C)c1C(=O)N1CCN(C)CC1	0.07
C[C@H](Nc1ncnc2nc[nH]c12)c1cc2cccc(Cl)c2c(=O)n1-c1ccccc1	-0.35
O=C(Nc1cccc(Nc2ncc(Br)c(NCCc3cnc[nH]3)n2)c1)N1CCCC1	0.31
COC(=O)Nc1ccc(-c2nc(N3CCOCC3)c3cnn(C4CCN(C(=O)OC)CC4)c3n2)cc1	0.44
CNC(=O)Nc1ccc(-c2nc(N3CC4CCC(C3)O4)c3cnn(C4CCC5(CC4)OCCO5)c3n2)cc1	0.32

---

System: LOC_OS01G67340-cb003
TEST PROTOCOL: thermal shift delta Tm vs DMSO control; higher = stronger stabilization (binding)
EXPERIMENTAL CONDITIONS: 12.5 µM; protein concentration 2 µM
Listed below: thermal shift delta Tm values for each entry.
RESULT TYPE: thermal shift delta Tm (°C)

MOLECULE	UOM	READOUT VALUE
CN1CCN(S(=O)(=O)c2ccc(-c3cnc(N)c(C(=O)Nc4cccnc4)n3)cc2)CC1	°C	0.5
CN1CCN(c2ccc(C(=O)Nc3n[nH]c4ccc(Cc5cc(F)cc(F)c5)cc34)c(NC3CCOCC3)c2)CC1 [Entrectinib (RXDX-101)]	°C	0.57
O=C1c2ccc(Nc3ccc(F)cc3F)cc2CCc2ccc(OC[C@H](O)CO)cc21 [Skepinone-L]	°C	0.84
CCS(=O)(=O)c1cccc(-c2cc(C(=O)NC3CCN(C)CC3)c(C)c3[nH]c4ncc(C)cc4c23)c1	°C	0.99
